tested_on: T1, MUC1 15 aa peptide with cysteine (APDTRPAPGSTAPPA-C) (Homo sapiens (synthetic peptide))
T1 construct: 15 residues of the tandem repeat (VNTR) of human MUC1; added C-terminal cysteine, used for coupling to the chip; also called MUC1 peptide; MUC1 peptide antigen
T1 chain: APDTRPAPGSTAPPAC
run_description: SPR; Biacore 2000; about 50 RU MUC1 15 aa peptide with cysteine coupled on a CM5 chip (NHS/EDC, PDEA); serial dilutions of scFv (0-400 nM) at 50 µL/min; 1:1 Langmuir separate fitting; IIB6 by steady-state model
run_parameters: both partners purified
Record form. Attribute: Kd. Fill in for each entry.
Give the value in nM but do not write nM after it.

Inquiry: Would you mind telling me what Kd value was observed for affinity matured anti-MUC1 scFv HT220-M-G8 (scFv, V domains shown, source: E. coli, IMAC purified; also culture supernatant from microtitre plates; not shown: c-myc, C-terminal, kept) VH: QMQLVQSGAEVMKPGASVKVSCKASGYSFTGHYMHWVRHAPGQGLEWMGWIDPVTGSTKYAQNFQGWVTMTRDTSISTAYMELSRLRSDDTAMYYCAREVTGDRGQFDKWGQGTLVTVAS VL: QSVLTQPPSVSVAPGKTARITCGGNNIGSKSVHWYQQKPGQAPVLVIYYGSDRPSGIPERFSGSNTGNMATLTISRVEAGDEADYYCQVWDSSSDWVFGGGTKLTVL ?
Reply text: 4.4

Inquiry: Would you mind telling me what Kd value was observed for affinity matured anti-MUC1 scFv HT220-M-D1 (scFv, V domains shown, one potential N-glycosylation site in CDR2; source: E. coli, IMAC purified; also culture supernatant from microtitre plates; not shown: c-myc, C-terminal, kept) VH: QMLLVQSGAEAKKPGASVKVSCKASGYTFTGHYMHWVRQAPGQGLEWMGWIDPVTGGTKYAQNFQGWVTMTRDTSIRTAYMELSRLRPDDTAMYYCAREVTGDRGQFDKWGQGTLVTVAS VL: QSVLTQPPSVSVVPGKTARIICGGNNIGSKSVHWYQQKPGQAPVLVIYNNSDRPSGIPERFSGSNSGNMATLTISRVEAGDESDYYCQVWDSSSDWVFGGGTRLTIL ?
Reply text: 3.7
